Test system: MOLT-4 cancer cell line
Experiment: Cell proliferation assay, MOLT-4 cancer cell line (ATPlite)
Assay type: cell-based
Details: Homo sapiens, MOLT-4; 72 hours incubation, ATPlite 1Step; read-out: IC50 MOLT-4 cell proliferation
quantity kind: IC50

Use the examples below as a reference point.
INSERT INTO assay_data (chem_smiles, quantity_kind, value_measured) VALUES
  ('Cc1cc(N2CCNCC2)ccc1Nc1ncc2c(n1)-n1ccc(C(=O)Nc3c(Cl)cccc3Cl)c1CC2', 'IC50', '< 50 nM'),
  ('[2H]C([2H])([2H])Oc1cc(N2CCN(C)CC2)ccc1Nc1ncc2c(n1)-n1ccc(C(=O)Nc3c(CC)nn(CCOC)c3CC)c1CC2', 'IC50', '< 50 nM'),
  ('[2H]C([2H])([2H])Oc1cc(N2CCN(C)CC2)ccc1Nc1ncc2c(n1)-n1ccc(C(=O)Nc3c(CC)cccc3CC)c1CC2', 'IC50', '< 50 nM'),
  ('COc1cc(C(=O)NC2CCOCC2)ccc1Nc1ncc2c(n1)-n1ccc(C(=O)Nc3c(C)cccc3C)c1CC2', 'IC50', '< 50 nM'),
  ('COc1cc(N2CCN(C)CC2)ccc1Nc1ncc2c(n1)-n1ccc(C(=O)Nc3c(C)cccc3OC)c1CC2', 'IC50', '50 to 150 nM');

Prompt: Fill blank: measured IC50 of the compound CCc1cccc(CC)c1NC(=O)c1ccn2c1CCc1cnc(Nc3ccc(OC4CCN(C)CC4)cc3OC)nc1-2 is ____.
Completion: < 50 nM

Prompt: Returns the measured IC50 for the input compound. Input: CCc1n[nH]c(CC)c1NC(=O)c1ccn2c1CCc1cnc(Nc3ccc(N4CCNCC4)cc3OC)nc1-2
Completion: < 50 nM

Prompt: Recorded IC50 for CCc1cccc(CC)c1NC(=O)c1ccn2c1CCc1cnc(Nc3cc(Cl)c(N4CCN(C)CC4)cc3OC)nc1-2 , please?
Completion: 50 to 150 nM

Prompt: Look up IC50 for this compound: COCCOCCOCCn1nc(C)c(NC(=O)c2ccn3c2CCc2cnc(Nc4ccc(N(C)CCCN(C)C)cc4OC)nc2-3)c1C
Completion: < 50 nM

Prompt: Would you mind telling me what IC50 value was observed for CCc1cccc(CC)c1NC(=O)c1ccn2c1CCc1cnc(Nc3ccc(OCCOC)cc3OC)nc1-2 ?
Completion: 50 to 150 nM

Prompt: Recorded IC50 for COCC(=O)N1CCN(c2ccc(Nc3ncc4c(n3)-n3ccc(C(=O)Nc5c(C)cccc5C)c3CC4)c(OC)c2)CC1 , please?
Completion: < 50 nM

Prompt: Find the recorded IC50 belonging to CCNC(=O)N1CCN(c2ccc(Nc3ncc4c(n3)-n3ccc(C(=O)Nc5c(C)cccc5C)c3CC4)c(OC)c2)CC1 and report it.
Completion: < 50 nM

Prompt: // query IC50 value for entry Cc1cccc(C)c1NC(=O)c1ccn2c1CCc1cnc(Nc3ccc(N4CCOCC4)nc3C)nc1-2
Completion: < 50 nM

Prompt: Quick one: IC50 for COCCn1nc(C)c(NC(=O)c2ccn3c2CCc2cnc(Nc4ccc(OC5CNC5)cc4OC)nc2-3)c1C ?
Completion: 50 to 150 nM

* * *

Property: pIC50; scope: individual compounds
Test system: MOLT-4 cancer cell line
Test: Cell proliferation assay, MOLT-4 cancer cell line (ATPlite)
Assay type: cell-based
Settings: Homo sapiens, MOLT-4; 72 hours incubation, ATPlite 1Step; read-out: IC50 MOLT-4 cell proliferation
pIC50: −log10 of the molar value.

INSERT INTO results (compound, measured_on, value_measured) VALUES
  ('COc1cc(C(=O)NCC(C)(C)O)ccc1Nc1ncc2c(n1)-n1ccc(C(=O)Nc3c(C)cccc3C)c1CC2 [Example 1]', 'MOLT-4 cancer cell line', '> 7.30'),
  ('COc1cc(C(=O)N[C@@H]2CCNC[C@@H]2OC)ccc1Nc1ncc2c(n1)-n1ccc(C(=O)Nc3c(C)cccc3C)c1CC2 [Example 117]', 'MOLT-4 cancer cell line', '> 7.30'),
  ('CCc1cccc(CC)c1NC(=O)c1ccn2c1ccc1cnc(Nc3ccc(N4CCNCC4)cc3OC)nc12 [Example 77]', 'MOLT-4 cancer cell line', '6.82 to 7.30'),
  ('CCc1n[nH]c(CC)c1NC(=O)c1ccn2c1ccc1cnc(Nc3ccc(N4CCNCC4)cc3OC)nc12 [Example 97]', 'MOLT-4 cancer cell line', '> 7.30'),
  ('Cc1cccc(C)c1NC(=O)c1ccn2c1CCc1cnc(Nc3ccc(C(=O)NC4CCN(C)CC4)cc3F)nc1-2 [Example 7]', 'MOLT-4 cancer cell line', '6.82 to 7.30'),
  ('COc1cc(N2CCN(C)CC2)ccc1Nc1ncc2c(n1)-n1ccc(C(=O)Nc3c(C(C)C)cccc3C(C)C)c1CC2 [Example 11]', 'MOLT-4 cancer cell line', '6.82 to 7.30'),
  ('Cc1cc(N2CCNCC2)ccc1Nc1ncc2c(n1)-n1ccc(C(=O)Nc3c(C)cccc3Cl)c1CC2 [Example 78]', 'MOLT-4 cancer cell line', '> 7.30'),
  ('CCc1nn(CCOC)c(CC)c1NC(=O)c1ccn2c1CCc1cnc(Nc3ccc(OC4CNC4)cc3OC)nc1-2 [Example 93]', 'MOLT-4 cancer cell line', '> 7.30');

Prompt: Which pIC50 reading was recorded for the compound COc1cc(N2CCN(C)CC2)ccc1Nc1ncc2c(n1)-n1ccc(C(=O)Nc3c(C)cccc3C#N)c1CC2 [Example 133] ?
Completion: > 7.30

Prompt: What value of pIC50 has been recorded for this entry: COc1cc(N2CCNCC2)ccc1Nc1ncc2c(n1)-n1ccc(C(=O)Nc3c(C)nn(CC(C)(C)O)c3C)c1CC2 [Example 98]
Completion: 6.82 to 7.30

Prompt: Need pIC50, item COc1cc(C(=O)N[C@@H]2CCNC[C@@H]2F)ccc1Nc1ncc2c(n1)-n1ccc(C(=O)Nc3c(C)cccc3C)c1CC2 [Example 118]
Completion: > 7.30

Prompt: Item COc1cc(C(=O)NC2CNC2)ccc1Nc1ncc2c(n1)-n1ccc(C(=O)Nc3c(C)cccc3C)c1CC2 [Example 104] has what recorded pIC50?
Completion: 6.82 to 7.30

Prompt: Please report the recorded pIC50 for CCc1cccc(CC)c1NC(=O)c1ccn2c1CCc1cnc(Nc3ccc(C(=O)NC4CCN(C)CC4)cc3C)nc1-2 [Example 36] .
Completion: 6.82 to 7.30

Prompt: Entry CCc1cccc(CC)c1NC(=O)c1ccn2c1CCc1cnc(Nc3ccc(OC4CCN(C)C4)cc3OC)nc1-2 (centres unmarked) [Example 59] : reported pIC50 = ?
Completion: > 7.30

* * *

System: MOLT-4 cancer cell line
Experiment: Cell proliferation assay, MOLT-4 cancer cell line (ATPlite);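 note: luminescence read-out, percent growth versus compound-free DMSO wells as maximum growth, start-of-incubation signal separating growth from cell death, IC50 from logistic curve fit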
Type: cell-based
Details: Homo sapiens, MOLT-4; worded 'TTK cellular assay'; read-out: IC50 in the TTK cellular assay
pIC50: −log10 of the molar value.
quantity kind: pIC50

Prompt: I have this compound here, CCNCC(=O)N1CCN(c2ccc(Nc3ncc4c(n3)-n3ccc(C(=O)Nc5c(CC)nn(CCOCCOC)c5CC)c3CC4)c(OC)c2)CC1 , and I need its recorded pIC50.
Completion: > 7.30

Prompt: Look at this compound and give its reported pIC50. CCOCCOCCn1nc(CC)c(NC(=O)c2ccn3c2CCc2cnc(Nc4ccc(N5CCNCC5)cc4OC)nc2-3)c1CC
Completion: > 7.30

Prompt: Which pIC50 value is on record for CCc1nn(CCOCCOC)c(CC)c1NC(=O)c1ccn2c1CCc1cnc(Nc3ccc(N4CCN(C(=O)COC)CC4)cc3OC)nc1-2 ?
Completion: > 7.30

* * *

Biological target: Polo-like kinase 1 (PLK1) (Homo sapiens, UniProt P53350)
Sequence (P53350 whole entry): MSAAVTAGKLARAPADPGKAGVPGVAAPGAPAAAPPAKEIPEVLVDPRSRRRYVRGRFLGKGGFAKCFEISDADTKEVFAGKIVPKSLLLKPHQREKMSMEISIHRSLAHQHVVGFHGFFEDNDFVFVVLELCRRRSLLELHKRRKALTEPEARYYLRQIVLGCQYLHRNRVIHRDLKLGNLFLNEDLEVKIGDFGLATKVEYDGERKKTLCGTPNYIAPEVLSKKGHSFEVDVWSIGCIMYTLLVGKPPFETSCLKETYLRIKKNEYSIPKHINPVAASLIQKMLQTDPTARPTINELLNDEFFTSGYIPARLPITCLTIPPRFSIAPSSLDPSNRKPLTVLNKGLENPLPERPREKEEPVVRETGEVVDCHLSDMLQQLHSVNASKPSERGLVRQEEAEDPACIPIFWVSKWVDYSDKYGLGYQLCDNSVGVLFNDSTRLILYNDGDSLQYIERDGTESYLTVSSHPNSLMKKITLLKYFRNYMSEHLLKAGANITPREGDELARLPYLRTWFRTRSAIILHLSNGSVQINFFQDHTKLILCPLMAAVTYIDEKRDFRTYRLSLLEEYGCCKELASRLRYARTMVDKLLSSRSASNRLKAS
Test: Biochemical Polo-like kinase 1 kinase assay (LANCE Ultra TR-FRET)
quantity kind: IC50

Worked examples, 5 molecules total:
INSERT INTO results (molecule, value_measured) VALUES
  ('COCCOCCOCCn1nc(C)c(NC(=O)c2ccn3c2CCc2cnc(Nc4ccc(N5CCN(C)CC5)cc4OC)nc2-3)c1C [Example 138]', '≥ 250 nM'),
  ('CCOCCOCCn1nc(C)c(NC(=O)c2ccn3c2CCc2cnc(Nc4ccc(N5CCN(C)CC5)cc4OC)nc2-3)c1C [Example 148]', '≥ 250 nM'),
  ('COCCOCCOCCn1nc(C)c(NC(=O)c2ccn3c2CCc2cnc(Nc4ccc(-c5c(C)nn(C)c5C)cc4OC)nc2-3)c1C [Example 160]', '≥ 250 nM'),
  ('CCOCCOCCn1nc(CC)c(NC(=O)c2ccn3c2CCc2cnc(Nc4ccc(N5CCNCC5)cc4OC)nc2-3)c1CC [Example 151]', '≥ 250 nM'),
  ('CCc1n[nH]c(CC)c1NC(=O)c1ccn2c1CCc1cnc(Nc3ccc(N4CCN(C)CC4)cc3OC(F)F)nc1-2 [Example 33]', '≥ 250 nM');

Then there is this molecule:
Prompt: Lab request: please report IC50 under test system Polo-like kinase 1 (PLK1) (Homo sapiens, UniProt P53350) for CCc1nn(CCOCCOC)c(CC)c1NC(=O)c1ccn2c1CCc1cnc(Nc3ccc(N4CCN(C)CC4)cc3OC)nc1-2 [Example 141]
Completion: ≥ 250 nM

Data provenance is patent USRE50082E1.
